From: patent US7767665B2

OUTCOME_MEASURE: melting point

// below: answered compounds
[[record]]
compound = "CS(=O)(=O)c1cc(-c2nc(=O)c3ccccc3s2)ccn1"
result = "189.5 to 191.5 °C"

[[record]]
compound = "CN(C(=O)OC(C)(C)C)c1cccc(-c2nc(=O)c3ccccc3s2)n1"
result = "195.6 to 196.3 °C"

[[record]]
compound = "CC(C)(C)OC(=O)CCc1cc(C#N)nc(-c2nc(=O)c3ccccc3s2)c1"
result = "189.9 to 190.7 °C"

[[record]]
compound = "CCC[S+]([O-])c1cccc(-c2nc(=O)c3ccccc3s2)n1 (stereo not drawn)"
result = "174.8 to 175.4 °C"

[[record]]
compound = "O=c1nc(-c2cc(CCc3nnn[nH]3)ccn2)sc2ccccc12"
result = "250 °C (dec.)"


For each of the compounds below, note its melting point.
1. CC(C)(C)OC(=O)CCOCCc1cccc(-c2nc(=O)c3ccccc3s2)n1
2. O=C(O)CCc1ccnc(-c2nc(=O)c3ccc(Cl)cc3s2)c1

Result:
67.7 to 68.5 °C
262.9 to 263.5 °C

For each of the compounds below, note its melting point.
1. O=C(O)CN1CCN(c2ccnc(-c3nc(=O)c4ccccc4s3)c2)C1=O
2. O=C(NCc1cccc(-c2nc(=O)c3ccccc3s2)n1)c1cccs1

Result:
1. 271 to 273 °C
2. 208.5 to 209 °C

###

Could you please report measured melting point for the items listed next?
Where a name gives a salt, the structure may show the parent alone.

// below: answered compounds
[[record]]
compound = "N#Cc1cc(CCC(=O)O)cc(-c2nc(=O)c3ccccc3s2)n1 [Example 356]"
outcome_measure = "melting point"
result = "271 to 272.7 °C"

[[record]]
compound = "CS(=O)(=O)c1cncc(-c2nc(=O)c3ccccc3s2)n1 [Example 289]"
outcome_measure = "melting point"
result = "232 to 233 °C"

[[record]]
compound = "N#Cc1cccc(-c2nc(=O)c3ccccc3s2)n1 [Example 242]"
outcome_measure = "melting point"
result = "263.7 to 264.2 °C"

[[record]]
compound = "CCC(=O)N(C)c1cccc(-c2nc(=O)c3ccccc3s2)n1 [Example 114]"
outcome_measure = "melting point"
result = "200.6 to 201.2 °C"

[[record]]
compound = "CCSc1cccc(-c2nc(=O)c3ccccc3s2)n1 [Example 126]"
outcome_measure = "melting point"
result = "161.3 to 162 °C"

[[record]]
compound = "CSc1cc(-c2nc(=O)c3ccccc3s2)ccn1 [Example 68]"
outcome_measure = "melting point"
result = "173.4 to 173.5 °C"


For each of the compounds below, note its melting point.
1. NCc1cccc(-c2nc(=O)c3ccccc3s2)n1 (as salt: trifluoroacetic acid salt) [Example 203]
2. CCOC(=O)CCCCCOc1ccc(-c2nc(=O)c3ccccc3s2)cn1 [Example 96]
3. CC(C)(C)[S+]([O-])c1cccc(-c2nc(=O)c3ccccc3s2)n1 (stereo not drawn) [Example 153]

Result:
184.5 to 186.5 °C
73.6 to 73.9 °C
180.5 °C (dec.)

###

Could you please report measured melting point for the items listed next?

[[record]]
molecule = "O=C(O)C[S+]([O-])c1cccc(-c2nc(=O)c3ccccc3s2)n1 (centres unmarked)"
result = "186.5 to 188 °C"

[[record]]
molecule = "Cc1csc(-c2nc(=O)c3ccccc3s2)n1"
result = "209.6 to 210.7 °C"

[[record]]
molecule = "O=c1nc(-c2ccccn2)sc2ccc(F)cc12"
result = "239.9 to 240.4 °C"

[[record]]
molecule = "CCOP(=O)(CCc1ccnc(-c2nc(=O)c3ccc(Cl)cc3s2)c1)OCC"
result = "137.7 to 139.1 °C"


Turning to the following molecule.
Ask: # lookup: melting point of `O=c1cccc(-c2nc(=O)c3ccccc3s2)[nH]1`
Result: 214.2 to 215.3 °C

###

OUTCOME_MEASURE: melting point

[[record]]
mol_smiles = "CNc1cccc(-c2nc(=O)c3ccccc3s2)n1"
result = "206.9 to 208 °C"

[[record]]
mol_smiles = "O=C(O)CCCCc1cccc(-c2nc(=O)c3ccccc3s2)n1"
result = "161.9 to 162.3 °C"

[[record]]
mol_smiles = "O=c1nc(-c2ccc(N3CCCCC3)nc2)sc2ccccc12"
result = "191.2 to 191.7 °C"

[[record]]
mol_smiles = "CSc1cncc(-c2nc(=O)c3ccccc3s2)n1"
result = "202.4 to 202.9 °C"


Turning to the following compound.
Ask: # lookup: melting point of `CSCc1cccc(-c2nc(=O)c3ccccc3s2)n1`
Result: 151.5 to 153 °C

###

Could you please report measured melting point for the items listed next?
Where a name gives a salt, the structure may show the parent alone.

// below: answered molecules
[[record]]
molecule = "CCCCCSc1cccc(-c2nc(=O)c3ccccc3s2)n1"
result = "105 to 105.1 °C"

[[record]]
molecule = "CN(C(=O)c1ccco1)c1cccc(-c2nc(=O)c3ccccc3s2)n1"
result = "186.2 to 187.2 °C"

[[record]]
molecule = "O=C1c2ccccc2C(=O)N1CCOc1ccc(-c2nc(=O)c3ccccc3s2)cn1"
result = "212.4 to 212.6 °C"

[[record]]
molecule = "Cc1cccc2c(=O)nc(-c3cccc(C(=O)NCCCCCCNC(=O)OC(C)(C)C)n3)sc12"
result = "170.7 to 171.5 °C"

[[record]]
molecule = "O=c1nc(-c2ccc(NCc3ccccc3)nc2)sc2ccccc12"
result = "194.3 to 196.2 °C"

[[record]]
molecule = "CSc1cccc(-c2nc(=O)c3ccccc3s2)n1"
result = "207.2 to 207.8 °C"

[[record]]
molecule = "O=c1nc(-c2cc(C3CCCN3)ccn2)sc2ccccc12 (stereo not shown) (as salt: trifluoroacetic acid salt)"
result = "187.5 to 189 °C"

[[record]]
molecule = "Cc1nc(-c2nc(=O)c3ccccc3s2)cs1"
result = "219 to 220 °C"

[[record]]
molecule = "O=c1nc(-c2ccccn2)sc2cc(C(F)(F)F)ccc12"
result = "175.8 to 177 °C"

[[record]]
molecule = "CCN(CC)C(=O)c1ccc(-c2nc(=O)c3ccccc3s2)nc1"
result = "193.2 to 193.3 °C"


For each of the molecules below, note its melting point.
1. COC(CCCNc1ccc(-c2nc(=O)c3ccccc3s2)cn1)OC
2. C[S+]([O-])c1cccc(-c2nc(=O)c3ccccc3s2)n1 (stereo not shown)
3. O=C(O)/C=C/c1cccc(-c2nc(=O)c3ccccc3s2)n1
4. CSc1cc(CCC(=O)OC(C)(C)C)cc(-c2nc(=O)c3ccccc3s2)n1
5. Cc1ccc(S(=O)(=O)c2cccc(-c3nc(=O)c4ccccc4s3)n2)cc1

Result:
157.2 to 158.5 °C
256.5 °C (dec.)
115.6 to 115.7 °C
125.5 to 126.5 °C
219.6 °C (dec.)

###

OUTCOME_MEASURE: melting point

[[record]]
compound = "O=C(O)CNc1nccc(-c2nc(=O)c3ccccc3s2)n1 [Example 296]"
outcome_measure = "melting point"
result = "283 to 284 °C"


For each of the compounds below, note its melting point.
1. CSc1ccnc(-c2nc(=O)c3ccccc3s2)c1 [Example 298]
2. O=c1nc(-c2ccnc(Cl)c2)sc2ccccc12 [Example 76]
3. CN(C)C(=O)NCc1cccc(-c2nc(=O)c3ccccc3s2)n1 [Example 216]

Result:
["213 to 214 °C", "177.8 to 178.4 °C", "175.2 to 176.3 °C"]

For each of the compounds below, note its melting point.
1. CCCNC(=O)c1cccc(-c2nc(=O)c3ccccc3s2)n1 [Example 50]
2. CC(C)(C)OC(=O)CCc1cccc(-c2nc(=O)c3ccc(C(F)(F)F)cc3s2)n1 [Example 177]
3. CC(C)(C)OC(=O)c1cccc(-c2nc(=O)c3ccccc3s2)n1 [Example 80]
4. O=c1nc(-c2cccc(SCCc3ccccc3)n2)sc2ccccc12 [Example 131]
5. C[S+]([O-])c1ccnc(-c2nc(=O)c3ccccc3s2)c1 (stereo not shown) [Example 299]
6. O=c1nc(-c2cccc(N3CCCCC3)n2)sc2ccccc12 [Example 42]

Result:
1: 179.7 to 181.4 °C; 2: 148.5 to 149.4 °C; 3: 185 to 185.5 °C; 4: 167.1 to 168.4 °C; 5: 205 to 206 °C; 6: 178.7 °C (dec.)

###

OUTCOME_MEASURE: melting point

For each of the compounds below, note its melting point.
1. CC(C)(C)OC(=O)CCc1cccc(-c2nc(=O)c3ccc(F)cc3s2)n1
2. CN(CC(=O)O)c1nccc(-c2nc(=O)c3ccccc3s2)n1
3. Cc1ccc2c(=O)nc(-c3cccc(CCC(=O)O)n3)sc2c1
4. CC(C)S(=O)(=O)c1cccc(-c2nc(=O)c3ccccc3s2)n1
5. C[S+]([O-])c1nccc(-c2nc(=O)c3ccccc3s2)n1 (stereo not drawn)
6. CC(C)CCSc1cccc(-c2nc(=O)c3ccccc3s2)n1

Result:
158.5 to 159.5 °C
215 °C (dec.)
221.9 to 222.5 °C
205 to 206 °C
250.5 to 252 °C
103.4 to 105.1 °C
